Target: Autotaxin (Homo sapiens)
Assay: Inhibition of 6x-histidine-tagged human recombinant ATX expressed in HEK293 cells assessed as choline release using lysophosphatidylcholine as substrate after 4 hrs by choline release assay
testReadout: IC50 (µM)

compound=O=C1N/C(=C\c2ccc(OCc3ccc(B(O)O)cc3)cc2)C(=O)N1Cc1ccc(F)cc1 testreadout=IC50 resultunit=µM measuredresult=0.026
compound=O=C(Nc1ccc(B(O)O)cc1)c1ccc(/C=C2\SC(=O)N(Cc3ccc(F)cc3)C2=O)cc1 testreadout=IC50 resultunit=µM measuredresult=0.147
compound=O=C(NCc1ccc(B(O)O)cc1)c1ccc(/C=C2\SC(=O)N(Cc3ccc(F)cc3)C2=O)cc1 testreadout=IC50 resultunit=µM measuredresult=0.071
compound="O=C1SC(Cc2ccc(OCc3ccc(B(O)O)cc3)cc2)C(O)N1Cc1ccc(F)cc1 (stereo not given)" testreadout=IC50 resultunit=µM measuredresult=1.59
compound=CN1C(=O)N(Cc2ccc(F)cc2)C(=O)/C1=C/c1ccc(OCc2ccc(B(O)O)cc2)cc1 testreadout=IC50 resultunit=µM measuredresult=0.0067
